- TESTED_SYSTEM: Human autotaxin enzyme (Homo sapiens, UniProt Q13822)
- Construct: purchased R&D System
- EXPERIMENT_NOTES: Evaluation of autotaxin inhibitor, Method C (Test Example 3): 18:0 Lyso PC, choline assay, Resorufin fluorescence
- Assay type: biochemical
- CONDITION_LABEL: Assay Method C (Test Example 3), human autotaxin, 18:0 Lyso PC substrate; read-out: Inhibitory Activity (autotaxin enzyme inhibitory activity, IC50 class)
pIC50: −log10 of the molar value.
MEASUREMENT_LABEL: pIC50

Some solved entries appear below for comparison.
COMPOUND: CCCCCn1c(N2CCCC(CNC(=O)OC(C)(C)C)C2)cc(=O)n2cc(-c3ccc(Cl)cc3)nc12 (centres unmarked) [Compound 311]
TESTED_SYSTEM: Human autotaxin enzyme (Homo sapiens, UniProt Q13822)
pIC50: 6.00 to 7.00

COMPOUND: CCCCCn1c(N2CCCC(O)(c3ccc(F)cc3)C2)cc(=O)n2cc(-c3ccc(Cl)cc3)nc12 (centres unmarked) [Compound 317]
TESTED_SYSTEM: Human autotaxin enzyme (Homo sapiens, UniProt Q13822)
pIC50: < 6.00

COMPOUND: CCCCCn1c(N2CCC[C@H]2C(=O)N[C@H](Cc2ccccc2)C(=O)O)cc(=O)n2cc(-c3ccc(Cl)cc3)nc12 [Compound 725]
TESTED_SYSTEM: Human autotaxin enzyme (Homo sapiens, UniProt Q13822)
pIC50: 7.00 to 8.00

COMPOUND: CCCCCn1c(N2CCC[C@H]2C(=O)NCC(=O)O)cc(=O)n2cc(-c3ccc(Cl)cc3)nc12 [Compound 348]
TESTED_SYSTEM: Human autotaxin enzyme (Homo sapiens, UniProt Q13822)
pIC50: > 8.00

COMPOUND: CCCCCn1c(-c2cccc(C(C)=O)c2)cc(=O)n2cc(-c3ccc(Cl)cc3)nc12 [Compound 447]
TESTED_SYSTEM: Human autotaxin enzyme (Homo sapiens, UniProt Q13822)
pIC50: 7.00 to 8.00

Ask | Please give the measured pIC50 for this compound: CCCCCn1c(N2CCC[C@H]2C(=O)N2CCC[C@H]2C(=O)O)cc(=O)n2cc(-c3ccc(Cl)cc3)nc12 [Compound 337]
Reply | 7.00 to 8.00

Ask | Please give the measured pIC50 for this compound: CCCCCn1c(N2CCCC[C@@H]2C(=O)NCC(=O)O)cc(=O)n2cc(-c3ccc(Cl)cc3)nc12 [Compound 638]
Reply | 6.00 to 7.00

Ask | Please give the measured pIC50 for this compound: N#Cc1ccc(-c2cn3c(=O)cc(-c4ccc(C(N)=O)cc4)n(CCCC(F)(F)F)c3n2)cc1 [Compound 388]
Reply | 7.00 to 8.00

Ask | Please give the measured pIC50 for this compound: CCn1c(N2C[C@H](O)C[C@H]2C(=O)N[C@@H](CCc2ccccc2)C(=O)O)cc(=O)n2cc(-c3ccc(Cl)cc3)nc12 [Compound 763]
Reply | 7.00 to 8.00

Ask | Please give the measured pIC50 for this compound: CCCCCn1c(N2CCNC[C@H]2C(=O)NCCC(=O)O)cc(=O)n2cc(-c3ccc(Cl)cc3)nc12 [Compound 664]
Reply | 7.00 to 8.00

Ask | Please give the measured pIC50 for this compound: CCCCCn1c(O[C@H]2CCN(CC(=O)O)C2)cc(=O)n2cc(-c3ccc(Cl)cc3)nc12 [Compound 575]
Reply | 7.00 to 8.00

Ask | Please give the measured pIC50 for this compound: CCCCCn1c(NCCC(=O)O)cc(=O)n2cc(-c3ccc(Cl)cc3)nc12 [Compound 601]
Reply | 6.00 to 7.00

Ask | Please give the measured pIC50 for this compound: CCCCCn1c(N2CCC[C@H]2C(=O)NC(C)(C)CC(=O)O)cc(=O)n2cc(-c3ccc(Cl)cc3)nc12 [Compound 350]
Reply | > 8.00

Ask | Please give the measured pIC50 for this compound: CCCCCn1c(N2C[C@@H](O)C[C@H]2C(=O)NCCC(=O)O)cc(=O)n2cc(-c3ccc(Cl)cc3)nc12 [Compound 582]
Reply | > 8.00

Ask | Please give the measured pIC50 for this compound: CCCCCn1c(N2CCC[C@H]2C(=O)NCCCCN2CC(C)OC(C)C2)cc(=O)n2cc(-c3ccc(Cl)cc3)nc12 (some centres unmarked) [Compound 657]
Reply | > 8.00

Ask | Please give the measured pIC50 for this compound: CCCCCn1c(N(C)CC(=O)NCC(=O)O)cc(=O)n2cc(-c3ccc(Cl)cc3)nc12 [Compound 609]
Reply | 7.00 to 8.00

Ask | Please give the measured pIC50 for this compound: CCCCCn1c(N2CCC[C@H]2C(=O)NCCC(=O)N(C)C)cc(=O)n2cc(-c3ccc(Cl)cc3)nc12 [Compound 344]
Reply | 6.00 to 7.00

Sourced from patent US20160002247A1
